// endpoint IC50 / system human ATX (autotaxin, ENPP2), His-tagged (Homo sapiens (Human), UniProt Q13822)
ASSAY_ENDPOINT: IC50

- MOLECULE: "CN(Cc1ccc(C#N)c(Cl)c1)C(=O)Cn1cnc2ccc(C3CCN(S(C)(=O)=O)CC3)cc2c1=O"
  READOUT_VALUE: "82 nM"
- MOLECULE: "O=C(Cn1cnc2ccc(N3CCN(C(=O)C4CCCCC4)CC3)cc2c1=O)NCc1ccc(Cl)c(Cl)c1"
  READOUT_VALUE: "10 nM"
- MOLECULE: "CC(=O)N1CCC(c2ccc3ncn(CC(=O)N(C)Cc4ccc(Cl)c(C#N)c4)c(=O)c3c2)CC1"
  READOUT_VALUE: "12 nM"
- MOLECULE: "CC(=O)N1CCN(c2ccc3ncn(CC(=O)NCc4ccc(Cl)c(Cl)c4)c(=O)c3c2)CC1"
  READOUT_VALUE: "91 nM"
- MOLECULE: "O=C(Cn1cnc2ccc(N3CCN(C(=O)C(F)(F)F)CC3)cc2c1=O)NCc1ccc(Cl)c(Cl)c1"
  READOUT_VALUE: "11 nM"
- MOLECULE: "CC(=O)N1CCN(c2ccc3ncn(CC(=O)NCc4ccc(Cl)c(F)c4)c(=O)c3c2)CC1"
  READOUT_VALUE: "33 nM"
- MOLECULE: "O=C(Cn1cnc2ccc(N3CCN(CC(O)CO)CC3)cc2c1=O)NCc1ccc(Cl)c(Cl)c1 (stereo not drawn)"
  READOUT_VALUE: "68 nM"
- MOLECULE: "CN(Cc1ccc(C#N)c(Cl)c1)C(=O)Cn1cnc2ccc(N3CCCN(CC4CCOC4)CC3)cc2c1=O (stereo not drawn)"
  READOUT_VALUE: "26 nM"
- MOLECULE: "CN(Cc1ccc(C#N)c(Cl)c1)C(=O)Cn1cnc2ccc(C3CCN(C(=O)C4CCO4)CC3)cc2c1=O (stereo not drawn)"
  READOUT_VALUE: "2 nM"
- MOLECULE: "CC(=O)N1CCN(c2ccc3ncn(CC(=O)NCc4ccc5c(c4)OCO5)c(=O)c3c2)CC1"
  READOUT_VALUE: "415 nM"
- MOLECULE: "O=C(Cn1cnc2ccc(N3CCN(Cc4cnc[nH]4)CC3)cc2c1=O)NCc1ccc(Cl)c(Cl)c1"
  READOUT_VALUE: "64 nM"
- MOLECULE: "CN(Cc1ccc(C#N)c(Cl)c1)C(=O)Cn1cnc2ccc(C3CCN(C(=O)C4CC(Cl)C4)CC3)cc2c1=O (stereo not drawn)"
  READOUT_VALUE: "18 nM"
- MOLECULE: "CC(=O)N1CCN(c2ccc3ncn(CC(=O)NCc4ccc([N+](=O)[O-])cc4)c(=O)c3c2)CC1"
  READOUT_VALUE: "52 nM"
- MOLECULE: "COCCC(=O)N1CCC(c2ccc3ncn(CC(=O)N(C)Cc4ccc(C#N)c(Cl)c4)c(=O)c3c2)CC1"
  READOUT_VALUE: "1 nM"
- MOLECULE: "CC(=O)N1CCN(c2ccc3ncn(CC(=O)N(C)Cc4ccc(Cl)cc4)c(=O)c3c2)CC1"
  READOUT_VALUE: "112 nM"

---

Hi! I'm sharing some IC50 results obtained with human ATX (autotaxin, ENPP2), His-tagged (Homo sapiens (Human), UniProt Q13822).

- COMPOUND: "CC(=O)N1CCN(c2ccc3ncn(CC(=O)NCc4ccc(F)c(OC(F)(F)F)c4)c(=O)c3c2)CC1"
  IC50: "51 nM"
- COMPOUND: "COCC(=O)N1CCC(c2ccc3ncn(CC(=O)N(C)Cc4ccc(C#N)c(Cl)c4)c(=O)c3c2)CC1"
  IC50: "12 nM"
- COMPOUND: "CC(=O)N1CCN(c2ccc3ncn(CC(=O)N4CCCC4c4ccc(Cl)cc4)c(=O)c3c2)CC1 (centres unmarked)"
  IC50: "341 nM"
- COMPOUND: "CN(Cc1ccc(Cl)c(Cl)c1)C(=O)Cn1cnc2ccc(C3CCN(C(=O)C4(O)CCC4)CC3)cc2c1=O"
  IC50: "46 nM"
- COMPOUND: "CN(Cc1ccc(Cl)c(Cl)c1)C(=O)Cn1cnc2ccc(C3CCN(C(=O)C4COCCO4)CC3)cc2c1=O (centres unmarked)"
  IC50: "34 nM"
- COMPOUND: "CO[C@H](C)C(=O)N1CCC(c2ccc3ncn(CC(=O)N(C)Cc4ccc(C#N)c(Cl)c4)c(=O)c3c2)CC1"
  IC50: "2 nM"
- COMPOUND: "CC(=O)N1CCN(c2ccc3ncn(CC(=O)NC(CC(=O)N(C)C)c4ccc(C(F)(F)F)cc4)c(=O)c3c2)CC1 (centres unmarked)"
  IC50: "121 nM"
- COMPOUND: "O=C(Cn1cnc2ccc(N3CCN(C(=O)Nc4cccnc4)CC3)cc2c1=O)NCc1ccc(Cl)c(Cl)c1"
  IC50: "76 nM"
- COMPOUND: "CN(Cc1ccc(C#N)c(Cl)c1)C(=O)Cn1cnc2ccc(C3CCN(CC4CCOC4)CC3)cc2c1=O (centres unmarked)"
  IC50: "46 nM"
- COMPOUND: "O=C(Cn1cnc2ccc(N3CCN(CC4CCC4)CC3)cc2c1=O)NCc1ccc(Cl)c(Cl)c1"
  IC50: "11 nM"
- COMPOUND: "COc1cc(C#N)ccc1CNC(=O)Cn1cnc2ccc(N3CCN(C(C)=O)CC3)cc2c1=O"
  IC50: "89 nM"
- COMPOUND: "CC(=O)N1CCC(c2ccc3ncn(CC(=O)N(C)Cc4ccc(Cl)c(OC(F)(F)F)c4)c(=O)c3c2)CC1"
  IC50: "15 nM"
- COMPOUND: "CC(=O)N1CCCN(c2ccc3ncn(CC(=O)N(C)Cc4ccc(Cl)c(C#N)c4)c(=O)c3c2)CC1"
  IC50: "20 nM"
- COMPOUND: "CC(=O)N1CCN(c2ccc3ncn(CC(=O)NCc4ccc(Cl)cc4)c(=O)c3c2)CC1"
  IC50: "96 nM"

---

The following are reported IC50 results, target or system human ATX (autotaxin, ENPP2), His-tagged (Homo sapiens (Human)).

- COMPOUND: "CC(=O)N1CCN(c2ccc3nc(C)n(CC(=O)NCc4ccc(Cl)c(Cl)c4)c(=O)c3c2)CC1"
  UNIT_SYMBOL: "nM"
  IC50: 21
- COMPOUND: "CC(=O)N1CCN(c2ccc3ncn(CC(=O)NCc4ccc(S(C)(=O)=O)c(C)c4)c(=O)c3c2)CC1"
  UNIT_SYMBOL: "nM"
  IC50: 1560
- COMPOUND: "C[C@@H](O)C(=O)N1CCC(c2ccc3ncn(CC(=O)N(C)Cc4ccc(Cl)c(Cl)c4)c(=O)c3c2)CC1"
  UNIT_SYMBOL: "nM"
  IC50: 2
- COMPOUND: "CN(Cc1ccc(Cl)c(Cl)c1)C(=O)Cn1cnc2ccc(C3CCN(C(=O)C4(C)CCCO4)CC3)cc2c1=O (stereo not drawn)"
  UNIT_SYMBOL: "nM"
  IC50: 8
- COMPOUND: "CN(Cc1ccc(Cl)c(Cl)c1)C(=O)Cn1cnc2ccc(N3CCN(CC4COC4)CC3)cc2c1=O"
  UNIT_SYMBOL: "nM"
  IC50: 132
- COMPOUND: "CC(C)[C@@H](O)C(=O)N1CCC(c2ccc3ncn(CC(=O)N(C)Cc4ccc(C#N)c(Cl)c4)c(=O)c3c2)CC1"
  UNIT_SYMBOL: "nM"
  IC50: 10
- COMPOUND: "CN(Cc1ccc(C#N)c(Cl)c1)C(=O)Cn1cnc2ccc(C3CCN(C(=O)CCC#N)CC3)cc2c1=O"
  UNIT_SYMBOL: "nM"
  IC50: 153
- COMPOUND: "CC(=O)N1CCN(c2ccc3ncn(CC(=O)NCc4ccc(S(F)(F)(F)(F)F)cc4)c(=O)c3c2)CC1"
  UNIT_SYMBOL: "nM"
  IC50: 12
- COMPOUND: "CC(=O)N1CCC(c2ccc3ncn(CC(=O)NCc4ccc(Cl)c(Cl)c4)c(=O)c3c2)CC1"
  UNIT_SYMBOL: "nM"
  IC50: 12
- COMPOUND: "CNC(=O)C[C@@H](NC(=O)Cn1cnc2ccc(N3CCN(C(C)=O)CC3)cc2c1=O)c1ccc([N+](=O)[O-])cc1"
  UNIT_SYMBOL: "nM"
  IC50: 54
- COMPOUND: "CC(=O)N1CCN(c2ccc3ncn(CC(=O)N(Cc4ccc(Cl)c(Cl)c4)C(C)C)c(=O)c3c2)CC1"
  UNIT_SYMBOL: "nM"
  IC50: 16
- COMPOUND: "COCCC(=O)N1CCC(c2cc(F)c3ncn(CC(=O)N(C)Cc4ccc(C#N)c(Cl)c4)c(=O)c3c2)CC1"
  UNIT_SYMBOL: "nM"
  IC50: 1

---

Biological target: human ATX (autotaxin, ENPP2), His-tagged (Homo sapiens (Human), UniProt Q13822)
pIC50: −log10 of the molar value.
Please use YES whenever pIC50 is not below 8, and NO whenever it is.

- COMPOUND: "CN(Cc1ccc(C#N)c(Cl)c1)C(=O)Cn1cnc2ccc(C3CCN(C(=O)C4COC4)CC3)cc2c1=O"
  ASSIGNED_CATEGORY: "NO"
- COMPOUND: "COCCN1CCN(c2ccc3ncn(CC(=O)N(C)Cc4ccc(Cl)c(Cl)c4)c(=O)c3c2)CC1"
  ASSIGNED_CATEGORY: "NO"
- COMPOUND: "CC(=O)N1CCC(c2ccc3ncn(CC(=O)NCc4ccc(Cl)c(C(F)(F)F)c4)c(=O)c3c2)CC1"
  ASSIGNED_CATEGORY: "YES"
- COMPOUND: "COC(=O)CN1CCN(c2ccc3ncn(CC(=O)NCc4ccc(Cl)c(Cl)c4)c(=O)c3c2)CC1"
  ASSIGNED_CATEGORY: "NO"
- COMPOUND: "CC(=O)N1CCN(c2ccc3ncn(C(C)C(=O)N(C)Cc4ccc(Cl)c(Cl)c4)c(=O)c3c2)CC1 (centres unmarked)"
  ASSIGNED_CATEGORY: "NO"
- COMPOUND: "COCCC(=O)N1CCC(c2cc3c(=O)n(CC(=O)N(C)Cc4ccc(C#N)c(Cl)c4)cnc3cn2)CC1"
  ASSIGNED_CATEGORY: "YES"
- COMPOUND: "CC(=O)N1CCN(c2ccc3ncn(CC(=O)N(C)Cc4cc(Cl)nc(Cl)c4)c(=O)c3c2)CC1"
  ASSIGNED_CATEGORY: "NO"
- COMPOUND: "CN(Cc1ccc(C#N)c(Cl)c1)C(=O)Cn1cnc2ccc(C3CCN(C(=O)C4CC4)CC3)cc2c1=O"
  ASSIGNED_CATEGORY: "YES"
- COMPOUND: "CN(Cc1ccc(Cl)c(C#N)c1)C(=O)Cn1cnc2ccc(C3CCN(CC4CCOC4)CC3)cc2c1=O (centres unmarked)"
  ASSIGNED_CATEGORY: "NO"
- COMPOUND: "CC(=O)N1CCN(c2ccc3ncn(CC(=O)N4CCC[C@@H]4c4ccc(C)cc4)c(=O)c3c2)CC1"
  ASSIGNED_CATEGORY: "NO"
- COMPOUND: "CO[C@H](C)C(=O)N1CCC(c2ccc3ncn(CC(=O)N(C)Cc4ccc(Cl)c(Cl)c4)c(=O)c3c2)CC1"
  ASSIGNED_CATEGORY: "YES"
- COMPOUND: "CC(=O)N1CCC(c2cc(F)c3ncn(CC(=O)N(C)Cc4ccc(C#N)c(Cl)c4)c(=O)c3c2)CC1"
  ASSIGNED_CATEGORY: "YES"
- COMPOUND: "CN(Cc1ccc(Cl)c(C#N)c1)C(=O)Cn1cnc2ccc(N3CCN(CC4CCOC4)CC3)cc2c1=O (centres unmarked)"
  ASSIGNED_CATEGORY: "NO"
- COMPOUND: "COC(C)C(=O)N1CCC(c2ccc3ncn(CC(=O)N(C)Cc4ccc(C#N)c(Cl)c4)c(=O)c3c2)CC1 (centres unmarked)"
  ASSIGNED_CATEGORY: "YES"
